Quick list: viability, T/C per entry.
- Tested on: PC-3 multi-cell spheroids, viability
- Assay Text: Anticancer human tumor PC-3 cell line growth inhibition [IpAb];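 also: spheroids exposed to compounds for 7 days before readout; 100% = DMSO vehicle control wells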
- Experimental Setup: second compound 1 µM; first compound 3.16 µM; hits give low values
Measurement Type: viability, T/C

Cn1nccc1Nc1nccc(-c2ccn(C(CO)c3ccc(Cl)c(F)c3)c(=O)c2)n1 (stereo not drawn) + CCN1CCN(Cc2ccc(Nc3ncc(F)c(-c4cc(F)c5nc(C)n(C(C)C)c5c4)n3)nc2)CC1 : 92%
Cn1ncc(Cl)c1-c1cc(C(=O)NC(CN)Cc2cccc(F)c2)sc1Cl (stereo not drawn) + CCN1CCN(Cc2ccc(Nc3ncc(F)c(-c4cc(F)c5nc(C)n(C(C)C)c5c4)n3)nc2)CC1 : 12.1%
CC1(C)CCC(CN2CCN(c3ccc(C(=O)NS(=O)(=O)c4ccc(NCC5CCOCC5)c([N+](=O)[O-])c4)c(Oc4cnc5[nH]ccc5c4)c3)CC2)=C(c2ccc(Cl)cc2)C1 + CCN1CCN(Cc2ccc(Nc3ncc(F)c(-c4cc(F)c5nc(C)n(C(C)C)c5c4)n3)nc2)CC1 : 41.5%

----------
- System: PC-3 multi-cell spheroids, viability
- Assay Text: Anticancer human tumor PC-3 cell line growth inhibition [IpAb];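 also: spheroids exposed to compounds for 7 days before readout; 100% = DMSO vehicle control wells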
- Experimental Setup: second compound 10 µM; first compound 10 µM; hits give low values
Measurement Type: viability, T/C

CC1(C)CCC(CN2CCN(c3ccc(C(=O)NS(=O)(=O)c4ccc(NCC5CCOCC5)c([N+](=O)[O-])c4)c(Oc4cnc5[nH]ccc5c4)c3)CC2)=C(c2ccc(Cl)cc2)C1 + CC(C)NCC(C(=O)N1CCN(c2ncnc3c2C(C)CC3O)CC1)c1ccc(Cl)cc1 : 0.81%
Cc1nc(NC(=O)N2CCCC2C(N)=O)sc1-c1ccnc(C(C)(C)C(F)(F)F)c1 (configuration not stated) + CC(C)NCC(C(=O)N1CCN(c2ncnc3c2C(C)CC3O)CC1)c1ccc(Cl)cc1 : 2.4%
CCCS(=O)(=O)Nc1ccc(F)c(C(=O)c2c[nH]c3ncc(-c4ccc(Cl)cc4)cc23)c1F + CC(C)NCC(C(=O)N1CCN(c2ncnc3c2C(C)CC3O)CC1)c1ccc(Cl)cc1 : 7.8%
Cn1nccc1Nc1nccc(-c2ccn(C(CO)c3ccc(Cl)c(F)c3)c(=O)c2)n1 (configuration not stated) + CC(C)NCC(C(=O)N1CCN(c2ncnc3c2C(C)CC3O)CC1)c1ccc(Cl)cc1 : 10.8%
C=CCn1c(=O)c2cnc(Nc3ccc(N4CCN(C)CC4)cc3)nc2n1-c1cccc(C(C)(C)O)n1 + CC(C)NCC(C(=O)N1CCN(c2ncnc3c2C(C)CC3O)CC1)c1ccc(Cl)cc1 : 7.22%
C=CC(=O)N1CCN(c2nc(=O)n(-c3c(C)ccnc3C(C)C)c3nc(-c4c(O)cccc4F)c(F)cc23)C(C)C1 (configuration not stated) + CC(C)NCC(C(=O)N1CCN(c2ncnc3c2C(C)CC3O)CC1)c1ccc(Cl)cc1 : 7.96%
Cn1ncc(Cl)c1-c1cc(C(=O)NC(CN)Cc2cccc(F)c2)sc1Cl (configuration not stated) + CC(C)NCC(C(=O)N1CCN(c2ncnc3c2C(C)CC3O)CC1)c1ccc(Cl)cc1 : 0.16%

----------
Quick list: viability, T/C per entry.
- Tested on: PC-3 multi-cell spheroids, viability
- Assay Text: Anticancer human tumor PC-3 cell line growth inhibition [IpAb];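 also: spheroids exposed to compounds for 7 days before readout; 100% = DMSO vehicle control wells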
- Experimental Setup: second compound 1 µM; first compound 0.1 µM; hits give low values
Measurement Type: viability, T/C (%)

CCCS(=O)(=O)Nc1ccc(F)c(C(=O)c2c[nH]c3ncc(-c4ccc(Cl)cc4)cc23)c1F + CCN1CCN(Cc2ccc(Nc3ncc(F)c(-c4cc(F)c5nc(C)n(C(C)C)c5c4)n3)nc2)CC1 : 58.5
Cc1nc(NC(=O)N2CCCC2C(N)=O)sc1-c1ccnc(C(C)(C)C(F)(F)F)c1 (stereo not drawn) + CCN1CCN(Cc2ccc(Nc3ncc(F)c(-c4cc(F)c5nc(C)n(C(C)C)c5c4)n3)nc2)CC1 : 53.6
COc1c(OCCCN2CCOCC2)ccc2c3n(c(=NC(=O)c4cnc(N)nc4)nc12)CCN3 + CC(C)NCC(C(=O)N1CCN(c2ncnc3c2C(C)CC3O)CC1)c1ccc(Cl)cc1 : 8.53
